test_details: Plasma concentrations and pharmacokinetic parameters after topical ocular, subcutaneous and intravitreal administration
Type: in vivo, New Zealand White rabbits
assay_conditions: New Zealand White, rabbit, plasma, subcutaneous, 5 mg/kg/dose, subcutaneous 5 mg/kg/dose, suspension; 0.25 hr; read-out: plasma Average

[
  {
    "compound": "COC(=O)N[C@@H](Cc1ccccc1)C(=O)N[C@@H](Cc1ccc(NS(=O)(=O)O)cc1)c1csc(-c2cccs2)n1 [Compound 1 free acid]",
    "concentration at 0.25 hr": "395 ng/mL"
  }
]

----------
test_details: Ocular tissue concentrations (aqueous humor, vitreous humor, iris, retina, choroid, cornea) after topical ocular, subcutaneous and intravitreal administration
Format: in vivo, New Zealand White rabbits
assay_conditions: New Zealand White, rabbit, choroid, subcutaneous, 5 mg/kg/dose, Choroid, 0.5 hr, OD; sodium salt, subcutaneous 5 mg/kg/dose, Group 2; read-out: Choroid Conc. (ng/g) OD
endpoint_name: concentration at 0.5 h

[
  {
    "record_smiles": "COC(=O)N[C@@H](Cc1ccccc1)C(=O)N[C@@H](Cc1ccc(NS(=O)(=O)O)cc1)c1csc(-c2cccs2)n1",
    "val": "264 ng/g"
  }
]

----------
test_details: Ocular tissue concentrations (aqueous humor, vitreous humor, iris, retina, choroid, cornea) after topical ocular, subcutaneous and intravitreal administration
Assay type: in vivo, New Zealand White rabbits
assay_conditions: New Zealand White, rabbit, cornea homogenate, other: intravitreal, 2.5 mg/eye, Cornea homogenate, 24 hr, left eye, intravitreal 2.5 mg/eye (group 5), individual animals; read-out: Conc. (ng/mL) OS

[
  {
    "record_smiles": "COC(=O)N[C@@H](Cc1ccccc1)C(=O)N[C@@H](Cc1ccc(NS(=O)(=O)O)cc1)c1csc(-c2cccs2)n1",
    "concentration at 24 hr (ng/mL)": 1190
  }
]

----------
test_details: Ocular tissue concentrations (aqueous humor, vitreous humor, iris, retina, choroid, cornea) after topical ocular, subcutaneous and intravitreal administration
Type: in vivo, New Zealand White rabbits
assay_conditions: New Zealand White, rabbit, iris homogenate, subcutaneous, 5 mg/kg/dose, Iris homogenate, 0.5 hr, OD; sodium salt, subcutaneous 5 mg/kg/dose, Group 2; read-out: Iris Conc. (ng/mL) OD

[
  {
    "compound": "COC(=O)N[C@@H](Cc1ccccc1)C(=O)N[C@@H](Cc1ccc(NS(=O)(=O)O)cc1)c1csc(-c2cccs2)n1 [Compound 1]",
    "concentration at 0.5 h, ng/mL": 27.7
  }
]

----------
test_details: Ocular tissue concentrations (aqueous humor, vitreous humor, iris, retina, choroid, cornea) after topical ocular, subcutaneous and intravitreal administration
Format: in vivo, New Zealand White rabbits
assay_conditions: New Zealand White, rabbit, iris, subcutaneous, 5 mg/kg/dose, TABLE 16: Iris, 4 hr, OD; free acid, subcutaneous 5 mg/kg/dose, Group 3; read-out: Iris Conc. (ng/g) OD

[
  {
    "molecule": "COC(=O)N[C@@H](Cc1ccccc1)C(=O)N[C@@H](Cc1ccc(NS(=O)(=O)O)cc1)c1csc(-c2cccs2)n1 [Compound 1]",
    "concentration at 4 h (ng/g)": 26.5
  }
]

----------
test_details: Ocular tissue concentrations (aqueous humor, vitreous humor, iris, retina, choroid, cornea) after topical ocular, subcutaneous and intravitreal administration
Assay type: in vivo, New Zealand White rabbits
assay_conditions: New Zealand White, rabbit, retina, subcutaneous, 5 mg/kg/dose, Retina, 4 hr, OD; sodium salt, subcutaneous 5 mg/kg/dose, Group 2; read-out: Retina Conc. (ng/g) OD

[
  {
    "record_smiles": "COC(=O)N[C@@H](Cc1ccccc1)C(=O)N[C@@H](Cc1ccc(NS(=O)(=O)O)cc1)c1csc(-c2cccs2)n1",
    "concentration at 4 h": "19.7 ng/g"
  }
]

----------
test_details: Ocular tissue concentrations (aqueous humor, vitreous humor, iris, retina, choroid, cornea) after topical ocular, subcutaneous and intravitreal administration
Format: in vivo, New Zealand White rabbits
assay_conditions: New Zealand White, rabbit, choroid, subcutaneous, 5 mg/kg/dose, Choroid, 1 hr, OD; free acid, subcutaneous 5 mg/kg/dose, Group 3; read-out: Choroid Conc. (ng/g) OD

[
  {
    "record_smiles": "COC(=O)N[C@@H](Cc1ccccc1)C(=O)N[C@@H](Cc1ccc(NS(=O)(=O)O)cc1)c1csc(-c2cccs2)n1",
    "concentration at 1 h [ng/g]": 66.4
  }
]

----------
test_details: Ocular tissue concentrations (aqueous humor, vitreous humor, iris, retina, choroid, cornea) after topical ocular, subcutaneous and intravitreal administration
Format: in vivo, New Zealand White rabbits
assay_conditions: New Zealand White, rabbit, cornea homogenate, subcutaneous, 5 mg/kg/dose, Cornea homogenate, 2 hr, OS; sodium salt, subcutaneous 5 mg/kg/dose, Group 2; read-out: Cornea Conc. (ng/mL) OS
Procedure: To measure the concentration of Compound 1 in plasma and ocular tissues following topical ocular, subcutaneous, and intravitreal administration, New Zealand White rabbits were administered Compound 1, and plasma and ocular samples were collected at pre-determined time points. […] Ocular tissue samples from both eyes of each animal were collected and weights were recorded. Plasma and ocular tissue sample concentrations of Compound 1 were determined by LC-MS/MS. […]

[
  {
    "record_smiles": "COC(=O)N[C@@H](Cc1ccccc1)C(=O)N[C@@H](Cc1ccc(NS(=O)(=O)O)cc1)c1csc(-c2cccs2)n1",
    "concentration at 2 h, ng/mL": 0.998
  }
]

----------
test_details: Ocular tissue concentrations (aqueous humor, vitreous humor, iris, retina, choroid, cornea) after topical ocular, subcutaneous and intravitreal administration
Assay type: in vivo, New Zealand White rabbits
assay_conditions: New Zealand White, rabbit, choroid homogenate, subcutaneous, 5 mg/kg/dose, Choroid homogenate, 1 hr, OD; sodium salt, subcutaneous 5 mg/kg/dose, Group 2; read-out: Choroid Conc. (ng/mL) OD

[
  {
    "molecule": "COC(=O)N[C@@H](Cc1ccccc1)C(=O)N[C@@H](Cc1ccc(NS(=O)(=O)O)cc1)c1csc(-c2cccs2)n1 [Compound 1]",
    "concentration at 1 h / ng/mL": 29.1
  }
]

----------
test_details: Ocular tissue concentrations (aqueous humor, vitreous humor, iris, retina, choroid, cornea) after topical ocular, subcutaneous and intravitreal administration
Format: in vivo, New Zealand White rabbits
assay_conditions: New Zealand White, rabbit, retina homogenate, other: intravitreal, 2.5 mg/eye, Retina homogenate, 24 hr, OD; sodium salt, intravitreal 2.5 mg/eye, Group 4; read-out: Retina Conc. (ng/mL) OD
endpoint_name: concentration at 24 h

[
  {
    "record_smiles": "COC(=O)N[C@@H](Cc1ccccc1)C(=O)N[C@@H](Cc1ccc(NS(=O)(=O)O)cc1)c1csc(-c2cccs2)n1",
    "endpoint_name": "concentration at 24 h",
    "val": "29200 ng/mL"
  }
]

----------
test_details: Ocular tissue concentrations (aqueous humor, vitreous humor, iris, retina, choroid, cornea) after topical ocular, subcutaneous and intravitreal administration
Format: in vivo, New Zealand White rabbits
assay_conditions: New Zealand White, rabbit, cornea homogenate, subcutaneous, 5 mg/kg/dose, Cornea homogenate, 1 hr, OD; free acid, subcutaneous 5 mg/kg/dose, Group 3; read-out: Cornea Conc. (ng/mL) OD

[
  {
    "record_smiles": "COC(=O)N[C@@H](Cc1ccccc1)C(=O)N[C@@H](Cc1ccc(NS(=O)(=O)O)cc1)c1csc(-c2cccs2)n1",
    "reading_unit": "ng/mL",
    "concentration at 1 h": 1.11
  }
]

----------
test_details: Ocular tissue concentrations (aqueous humor, vitreous humor, iris, retina, choroid, cornea) after topical ocular, subcutaneous and intravitreal administration
Type: in vivo, New Zealand White rabbits
assay_conditions: New Zealand White, rabbit, retina, other: intravitreal, 2.5 mg/eye, Retina, 48 hr, OD; sodium salt, intravitreal 2.5 mg/eye, Group 4; read-out: Retina Conc. (ng/g) OD

[
  {
    "record_smiles": "COC(=O)N[C@@H](Cc1ccccc1)C(=O)N[C@@H](Cc1ccc(NS(=O)(=O)O)cc1)c1csc(-c2cccs2)n1",
    "concentration at 48 h": "71400 ng/g"
  }
]

----------
test_details: Ocular tissue concentrations (aqueous humor, vitreous humor, iris, retina, choroid, cornea) after topical ocular, subcutaneous and intravitreal administration
Format: in vivo, New Zealand White rabbits
assay_conditions: New Zealand White, rabbit, choroid, other: intravitreal, 2.5 mg/eye, Choroid, 72 hr, average, intravitreal 2.5 mg/eye (group 5); read-out: Avg.

[
  {
    "record_smiles": "COC(=O)N[C@@H](Cc1ccccc1)C(=O)N[C@@H](Cc1ccc(NS(=O)(=O)O)cc1)c1csc(-c2cccs2)n1",
    "reading_unit": "ng/g",
    "concentration at 72 hr": 27600
  }
]

----------
test_details: Ocular tissue concentrations (aqueous humor, vitreous humor, iris, retina, choroid, cornea) after topical ocular, subcutaneous and intravitreal administration
Type: in vivo, New Zealand White rabbits
assay_conditions: New Zealand White, rabbit, cornea homogenate, other: intravitreal, 2.5 mg/eye, Cornea homogenate, 24 hr, OS; sodium salt, intravitreal 2.5 mg/eye, Group 4; read-out: Cornea Conc. (ng/mL) OS
endpoint_name: concentration at 24 hr (ng/mL)

[
  {
    "record_smiles": "COC(=O)N[C@@H](Cc1ccccc1)C(=O)N[C@@H](Cc1ccc(NS(=O)(=O)O)cc1)c1csc(-c2cccs2)n1",
    "val": 1560
  }
]
